experimental_system: UniProt P81172
Sequence (P81172 60-84 limits assumed): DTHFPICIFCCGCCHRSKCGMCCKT
assay_endpoint: pKd
Scale: pKd equals -log10([C]), with [C] in mol/L.

Prompt: Tell me reported pKd for Nc1nc2c(ncn2[C@@H]2O[C@H](COP(=O)(O)OP(=O)(O)O)[C@@H](O)[C@H]2O)c(=O)[nH]1 [ZINC08215481, guanosine 5′-diphosphate] , tested with UniProt P81172.
Completion: 5.23
